Below is a list of entries, each paired with its recorded bioavailability value.
Assay: Pharmacokinetic study in mice (IV and oral gavage)
Format: in vivo, CD-1 mice
Conditions: mouse, plasma; oral bioavailability, PO 10 mg/kg vs IV 3 mg/kg, male CD-1 mice
Attribute measured: bioavailability (%)

> print(dat)
                                   compound  attribute.measured  obs.value
1  C[C@@H](CONC(=O)CC1=CCN(c2ncc(C(F)(F)F)cn2)CC1)Nc1cn[nH]c(=O)c1C(F)(F)F [Example 25]     bioavailability       75.9
2  C[C@@H](COCCC(=O)N1CCN(c2ncc(C(F)(F)F)cn2)CC1)Nc1cn[nH]c(=O)c1C(F)(F)F [RBN-2397, reference compound]     bioavailability       23.9
3  C[C@@H](CONC(=O)CC1CCN(c2ncc(C(F)(F)F)cn2)CC1)Nc1cn[nH]c(=O)c1C(F)(F)F [Example 17]     bioavailability       61.3
